# Subject of test: T1, recombinant protein consisting of the extracellular domain of human TREM2 fused to the His tag (human, UniProt Q9NZC2 19-174)
# T1 construct: also called His tagged hTREM2; His-TREM2
# T1 sequence: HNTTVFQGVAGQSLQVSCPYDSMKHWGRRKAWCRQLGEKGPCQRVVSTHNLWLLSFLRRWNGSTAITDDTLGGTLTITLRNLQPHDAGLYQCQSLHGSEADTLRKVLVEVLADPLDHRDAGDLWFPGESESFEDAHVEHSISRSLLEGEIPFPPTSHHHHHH
# Test description: direct ELISA, coated His-TREM2 0.5 ug/mL, Ab stock 1 mg/mL
Experimental endpoint: OD at dilution 729000 (OD)
The reply should contain only the number, in OD.

Quick one: OD at dilution 729000 of 60H4A3 (antibody, V domains shown, Biotin conjugated in sup ELISA, cell-based ELISA and flow cytometry) VH: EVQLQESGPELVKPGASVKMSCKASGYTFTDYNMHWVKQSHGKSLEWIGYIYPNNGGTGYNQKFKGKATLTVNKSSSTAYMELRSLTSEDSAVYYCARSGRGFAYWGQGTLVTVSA VL: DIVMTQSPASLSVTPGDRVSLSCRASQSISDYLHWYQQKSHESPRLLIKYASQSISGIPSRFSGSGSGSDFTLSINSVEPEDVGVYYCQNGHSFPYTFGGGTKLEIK ?
0.322

Do the same for 83E10B12 (antibody, V domains shown, Biotin conjugated in sup ELISA, cell-based ELISA and flow cytometry) VH: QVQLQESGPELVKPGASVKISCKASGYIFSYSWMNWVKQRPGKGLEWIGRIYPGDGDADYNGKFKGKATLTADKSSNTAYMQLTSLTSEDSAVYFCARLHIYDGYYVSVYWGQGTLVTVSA VL: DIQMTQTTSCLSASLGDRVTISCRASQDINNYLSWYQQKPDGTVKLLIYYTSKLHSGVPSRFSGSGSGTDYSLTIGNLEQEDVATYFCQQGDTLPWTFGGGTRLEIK please
0.099

Do the same for 60H4G2 (antibody, V domains shown, Biotin conjugated in sup ELISA, cell-based ELISA and flow cytometry) VH: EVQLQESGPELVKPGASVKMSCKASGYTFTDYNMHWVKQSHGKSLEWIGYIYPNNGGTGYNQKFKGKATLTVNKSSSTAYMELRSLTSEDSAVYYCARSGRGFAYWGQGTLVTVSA VL: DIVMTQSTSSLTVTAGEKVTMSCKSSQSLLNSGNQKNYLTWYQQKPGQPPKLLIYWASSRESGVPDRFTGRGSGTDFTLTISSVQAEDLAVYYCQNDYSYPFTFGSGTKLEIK please
0.222

***
Quick one: OD at dilution 729000 of 61B11C9 (antibody, V domains shown, Biotin conjugated in sup ELISA, cell-based ELISA and flow cytometry) VH: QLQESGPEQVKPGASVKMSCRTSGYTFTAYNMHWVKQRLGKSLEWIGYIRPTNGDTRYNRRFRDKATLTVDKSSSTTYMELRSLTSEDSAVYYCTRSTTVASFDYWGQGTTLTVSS VL: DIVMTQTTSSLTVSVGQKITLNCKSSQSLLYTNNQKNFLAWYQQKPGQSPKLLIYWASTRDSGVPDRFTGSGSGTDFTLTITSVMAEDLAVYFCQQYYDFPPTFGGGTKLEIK ?
0.405
